system: Odoribacter splanchnicus; test: growth AUC relative to DMSO control (median of replicates) (fraction); higher = more growth (less inhibition), active = hit call of the paper; conditions: 20 µM; 24 h;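 active = AUC reduced over 20% with Padj below 0.05 in at least 2 of 3 replicates; inactive = otherwise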
Returns: one label drawn from label 1 (active), label 0 (inactive)

Sample answers from the record:
molecule: C[C@@H]1C[C@@H]([C@H](O)CC2CC(=O)NC(=O)C2)C(=O)[C@@H](C)C1
tested.target: Odoribacter splanchnicus
assigned.label: label 0
--
molecule: Clc1nc(Cl)nc(Nc2ccccc2Cl)n1
tested.target: Odoribacter splanchnicus
assigned.label: label 0
--
molecule: CC(C)C1(C)N=C(c2ncccc2C(=O)O)NC1=O (configuration not stated)
tested.target: Odoribacter splanchnicus
assigned.label: label 0
--
molecule: CO/C=C(/C(=O)OC)c1ccccc1COc1cccc(C(F)(F)F)n1
tested.target: Odoribacter splanchnicus
assigned.label: label 0
--
molecule: Fc1ccc(C2(Cn3cncn3)OC2c2ccccc2Cl)cc1 (configuration not stated)
tested.target: Odoribacter splanchnicus
assigned.label: label 0
--
molecule: ClC1=C(Cl)[C@]2(Cl)[C@@H]3[C@H]4C[C@H]([C@@H]5O[C@H]45)[C@@H]3[C@@]1(Cl)C2(Cl)Cl
tested.target: Odoribacter splanchnicus
assigned.label: label 0
--
molecule: O=C(O)c1ccccc1C(=O)Nc1cccc2ccccc12
tested.target: Odoribacter splanchnicus
assigned.label: label 0
--
molecule: O=C(O)c1cc(Cl)ccc1Cl
tested.target: Odoribacter splanchnicus
assigned.label: label 0
--
molecule: O=P(OC(CCl)CCl)(OC(CCl)CCl)OC(CCl)CCl
tested.target: Odoribacter splanchnicus
assigned.label: label 0
--
molecule: CCN(CC)C(=O)SCc1ccc(Cl)cc1
tested.target: Odoribacter splanchnicus
assigned.label: label 0

How was `CCOP(=S)(OCC)SCCSCC` classified in this test? label 0

Could you please tell me the result logged for `CCNC(=O)NC(=O)/C(C#N)=N/OC` in this assay? label 0

What call does the record list for `CCCSP(=O)(OCC)SCCC` ? label 0

How did this test come out for `c1ccc2c(c1)cc1ccc3cccc4ccc2c1c34` ? label 0

Just curious, what result did `CC(C)(C)c1ccc(CCOc2ncnc3ccccc23)cc1` get here? label 0

Please indicate how the test categorized FC(F)C(F)(F)OCC(Cn1cncn1)c1ccc(Cl)cc1Cl (configuration not stated) . label 0

Please state the recorded outcome for this molecule: `CCOP(=O)(OCC)OCC` label 0

Lab log entry: `CCOC(=O)c1cn2nc(OP(=S)(OCC)OCC)cc2nc1C` — outcome as called in the assay? label 1

Outcome logged for `Oc1ccc(Cc2ccc(O)cc2)cc1` in this assay: label 0

What call does the record list for `CC1(C)CN=C(NN=C(/C=C/c2ccc(C(F)(F)F)cc2)/C=C/c2ccc(C(F)(F)F)cc2)NC1` ? label 0

Write down the call the test reported for this molecule. Item: `Cc1cccc2sc3nncn3c12` label 0

Entry `CCS(=O)(=O)c1nc2ccccn2c1S(=O)(=O)NC(=O)Nc1nc(OC)cc(OC)n1` : call = ? label 0
